Reference for the values: patent US9365541B2

Here we list compounds with their recorded IC50 when tested on human HDAC1 (Homo sapiens).
Sequence (Q13547 whole entry): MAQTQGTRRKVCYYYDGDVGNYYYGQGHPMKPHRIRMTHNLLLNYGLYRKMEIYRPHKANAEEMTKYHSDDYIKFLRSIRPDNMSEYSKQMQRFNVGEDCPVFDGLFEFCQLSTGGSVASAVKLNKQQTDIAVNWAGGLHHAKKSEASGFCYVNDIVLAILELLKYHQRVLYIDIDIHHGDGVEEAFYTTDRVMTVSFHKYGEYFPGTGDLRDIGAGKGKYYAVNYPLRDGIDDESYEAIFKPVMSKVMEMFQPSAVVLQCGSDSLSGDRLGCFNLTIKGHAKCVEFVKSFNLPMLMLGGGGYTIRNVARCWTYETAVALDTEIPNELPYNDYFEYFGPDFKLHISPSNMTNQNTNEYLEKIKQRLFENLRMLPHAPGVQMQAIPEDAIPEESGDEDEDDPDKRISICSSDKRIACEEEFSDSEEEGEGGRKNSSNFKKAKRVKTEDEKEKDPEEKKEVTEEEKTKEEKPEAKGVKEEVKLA

A selection of reference data follows.
CNC(=O)CCCCC[C@H](NC(=O)c1ccnn1C)c1ncc(-c2ccc(-c3ccn(C)n3)cc2)[nH]1 ... > 5 µM
CNC(=O)CCCCC[C@H](NC(=O)CCc1c(C)nc2ncnn2c1C)c1ncc(-c2cc3ccccc3nc2OC)[nH]1 ... < 1 µM
CNC(=O)CCCCC[C@H](NC(=O)Cc1cnccn1)c1ncc(-c2cc3ccccc3nc2OC)[nH]1 ... 1 to 5 µM

From here, focus on the item given below.
q: Tell me reported IC50 for "CNC(=O)CCCCC[C@H](NC(=O)Cc1nc(-c2ccccc2)cs1)c1ncc(-c2ccc3ccccc3c2)[nH]1" , tested with human HDAC1 (Homo sapiens).
a: 1 to 5 µM
